- System Tested: purified mutant MGL (mut-MGLL 11-313 L179S L186S) (Homo sapiens, UniProt Q99685, L169S/L176S)
- Construct: purified mutant MGL (mut-MGLL 11-313 L179S L186S)
- Measurement Protocol: MGL enzyme activity assay (4MU-B cleavage), mutant MGL
- Recorded Conditions: mutant MGL 5 nM, 4MU-B 10 μM, 37° C.; read-out: MGL mutant inh IC50
Measured Parameter: IC50 (nM)

molecule="O=C(c1ccc2c(-c3ccc(OC(F)(F)F)cc3)cccc2c1)N1CC(N[C@H]2CCN(C(=O)c3ccccc3)C2)C1 [Cpd 26]" measured_parameter=IC50 unit_string=nM measured_value=125
molecule="O=C(c1ccccc1)N1CC[C@H](NC2CN(C(=O)c3cc4ccc(C(F)(F)F)cc4s3)C2)C1 [Cpd 20]" measured_parameter=IC50 unit_string=nM measured_value=80.4
molecule="O=C(c1ccc(-c2ccccc2)cc1)N1CC(N[C@H]2CCN(C(=O)c3cc4ccccc4o3)C2)C1 [Cpd 47]" measured_parameter=IC50 unit_string=nM measured_value=10900
molecule="O=C(c1ccc(-c2cc(Cl)cc(Cl)c2)cc1)N1CC(N[C@H]2CCN(C(=O)c3ccccc3)C2)C1 [Cpd 17]" measured_parameter=IC50 unit_string=nM measured_value=41
molecule="O=C(c1ccc(Cc2ccccc2)cc1)N1CC(N[C@@H]2CCN(C(=O)c3nccs3)C2)C1 [Cpd 6]" measured_parameter=IC50 unit_string=nM measured_value=490
molecule="O=C(c1ccc2c(c1)Cc1ccccc1-2)N1CC(N[C@H]2CCN(C(=O)c3ccccc3)C2)C1 [Cpd 27]" measured_parameter=IC50 unit_string=nM measured_value=96.7
molecule="O=C(c1ccc(C(F)(F)c2ccccc2)cc1)N1CC(N[C@H]2CCN(C(=O)c3ccccc3)C2)C1 [Cpd 73]" measured_parameter=IC50 unit_string=nM measured_value=15.8
molecule="O=C(c1ccccc1)N1CC[C@H](NC2CN(C(=O)c3cc4cc(-c5cccc(C(F)(F)F)c5)ccc4s3)C2)C1 [Cpd 51]" measured_parameter=IC50 unit_string=nM measured_value=229
molecule="O=C(c1nccs1)N1CC[C@H](NC2CN(C(=O)N3CCc4cc(Br)ccc4C3)C2)C1 [Cpd 10]" measured_parameter=IC50 unit_string=nM measured_value=2910
molecule="O=C(c1ccc(-c2cccc(Cl)c2)cc1)N1CC(N[C@H]2CCN(C(=O)c3ccccc3)C2)C1 [Cpd 29]" measured_parameter=IC50 unit_string=nM measured_value=11

1: O=C(c1ccccc1)N1CC[C@H](NC2CN(C(=O)c3sc4cc(Br)ccc4c3Cl)C2)C1 [Cpd 21]
2: O=C(c1ccc(Cc2ccccc2)cc1)N1CC(N[C@H]2CCN(C(=O)c3nccs3)C2)C1 [Cpd 3]
3: O=C(c1ccc(-c2ccccc2)cc1)N1CC(N[C@@H]2CN(C(=O)c3ccccc3)C[C@H]2O)C1 (relative stereo) [Cpd 78]
4: O=C(c1nccs1)N1CC[C@H](NC2CN(C(=O)N3Cc4ccc(-c5ccccc5)cc4C3)C2)C1 [Cpd 13]
Q) // smallest IC50 at index 0, largest at the end Answer by listing the labels in the order asked for.
A) 1, 2, 4, 3
(1: 5 nM, 2: 21.8 nM, 4: 720 nM, 3: 13400 nM)

====

Assay system purified wild type MGL (wt-MGLL 6H-11-313) (Homo sapiens); read-out recorded as IC50.
Measured Parameter: IC50 (nM)

smiles_text=Cn1cc(-c2cccc(C(F)(F)F)c2)c2ccc(C(=O)N3CC(N[C@H]4CCN(C(=O)c5nccs5)C4)C3)cc21 measured_value=6.3
smiles_text=O=C(c1ccc(-c2ccc(C(F)(F)F)cc2)cc1)N1CC(N[C@H]2CCN(C(=O)c3cscn3)C2)C1 measured_value=96.4
smiles_text=O=C(c1ccccc1)N1CC[C@H](NC2CN(C(=O)c3sc4ccc(-c5ccc(C(F)(F)F)cc5)cc4c3F)C2)C1 measured_value=6
smiles_text=O=C(c1ccc(-c2ccc(C(F)(F)F)cc2)cc1)N1CC(N[C@H]2CCN(C(=O)c3nccs3)C2)C1 measured_value=10

a: O=C(c1nccs1)N1CC[C@H](NC2CN(C(=O)c3sc4cc(C(F)(F)F)ccc4c3Cl)C2)C1
b: O=C(c1ccc2c(ccn2-c2ccc(F)cc2)c1)N1CC(N[C@H]2CCN(C(=O)c3nccs3)C2)C1
Q) Pick one, a or b : lowest reported IC50. When you have decided, please share the label of that item.
A) b
(b: 6 nM, a: 11 nM)

====

- System Tested: purified wild type MGL (wt-MGLL 6H-11-313) (Homo sapiens, UniProt Q99685)
Measured Parameter: IC50 (nM)

Here is how some molecules turned out for IC50.
smiles_text=O=C(c1ccc(-c2cccc(C(F)(F)F)c2)cc1)N1CC(N[C@H]2CCN(C(=O)c3cscn3)C2)C1 system_tested="purified wild type MGL (wt-MGLL 6H-11-313) (Homo sapiens, UniProt Q99685)" measured_parameter=IC50 measured_value=16.7
smiles_text=O=C(c1cc2ccc(Br)cc2s1)N1CC(N[C@H]2CCN(C(=O)c3nccs3)C2)C1 system_tested="purified wild type MGL (wt-MGLL 6H-11-313) (Homo sapiens, UniProt Q99685)" measured_parameter=IC50 measured_value=410

P: O=C(c1ccc(-c2cccc(Cl)c2)cc1)N1CC(N[C@H]2CCN(C(=O)c3ccccc3)C2)C1
Q: O=C(c1ccc2c(c1)c(F)cn2-c1ccc(F)cc1)N1CC(N[C@H]2CCN(C(=O)c3ccccc3)C2)C1
R: Cn1nc(-c2ccc(F)cc2)c2cc(C(=O)N3CC(N[C@H]4CCN(C(=O)c5ccccc5)C4)C3)ccc21
S: O=C(c1ccccc1)N1CC[C@H](NC2CN(C(=O)c3cc4cc(-c5ccc(C(F)(F)F)cc5)ccc4s3)C2)C1
T: O=C(c1nccs1)N1CC[C@H](NC2CN(C(=O)c3cc4ccn(-c5ccc(F)cc5)c4cc3Cl)C2)C1
Q) List items by IC50 in falling order. Answer by listing the labels in the order asked for.
A) R, Q, T, P, S

1: O=C(c1ccc2c(ccn2-c2ccc(F)cc2)c1)N1CC(N[C@H]2CCN(C(=O)c3ccccc3)C2)C1
2: O=C(c1ccc2c(ccn2-c2ccc(F)cc2)c1)N1CC(N[C@H]2CCN(C(=O)c3cscn3)C2)C1
Q) Pick one, 1 or 2 : lowest reported IC50. When you have decided, please share the label of that item.
A) 2
(2: 12.4 nM, 1: 55 nM)

a: O=C(c1cscn1)N1CC[C@H](NC2CN(C(=O)c3sc4ccc(Cl)cc4c3C(F)(F)F)C2)C1
b: O=C(c1nccs1)N1CC[C@H](NC2CN(C(=O)c3sc4cc(-c5ccccc5)ccc4c3C(F)(F)F)C2)C1
Q) Parameter check: reported IC50 is higher for which label, a or b ? When you have decided, please share the label of that item.
A) a

I: O=C(c1ccc2c(-c3ccccc3)c[nH]c2c1)N1CC(N[C@H]2CCN(C(=O)c3ccccc3)C2)C1
II: O=C(c1ccccc1)N1CC[C@H](NC2CN(C(=O)c3cc4ccc(-c5cccc(C(F)(F)F)c5)cc4s3)C2)C1
III: O=C(c1ccc2c(cnn2-c2ccccc2)c1)N1CC(N[C@H]2CCN(C(=O)c3ccccc3)C2)C1
IV: O=C(c1ccc2c(-c3ccc(F)cc3)c[nH]c2c1)N1CC(N[C@H]2CCN(C(=O)c3cscn3)C2)C1
V: O=C(c1nccs1)N1CC[C@H](NC2CN(C(=O)c3cn(-c4ccc(F)cc4)c4ccccc34)C2)C1
Q) // smallest IC50 at index 0, largest at the end Answer by listing the labels in the order asked for.
A) II, IV, I, III, V

====

- System Tested: purified mutant MGL (mut-MGLL 11-313 L179S L186S) (Homo sapiens, UniProt Q99685, L169S/L176S)
- Construct: purified mutant MGL (mut-MGLL 11-313 L179S L186S)
- Sequence (Q99685 1-303 L169S/L176S): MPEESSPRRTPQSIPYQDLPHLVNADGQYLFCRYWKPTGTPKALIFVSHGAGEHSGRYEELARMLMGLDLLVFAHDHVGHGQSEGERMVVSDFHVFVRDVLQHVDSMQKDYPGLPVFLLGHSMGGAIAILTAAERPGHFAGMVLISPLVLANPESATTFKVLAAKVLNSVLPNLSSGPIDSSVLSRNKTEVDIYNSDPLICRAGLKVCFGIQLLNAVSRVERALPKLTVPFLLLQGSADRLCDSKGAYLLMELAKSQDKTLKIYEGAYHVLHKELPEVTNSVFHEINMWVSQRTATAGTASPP
- Measurement Protocol: MGL enzyme activity assay (4MU-B cleavage), mutant MGL
- Recorded Conditions: mutant MGL 5 nM, 4MU-B 10 μM, 37° C.; read-out: MGL mutant inh IC50
pIC50: −log10 of the molar value.
Measured Parameter: pIC50

smiles_text=O=C(c1ccccc1)N1CC[C@H](NC2CN(C(=O)c3cc4cc(Br)ccc4s3)C2)C1 measured_value=6.45
smiles_text=O=C(c1ccc(Cc2ccccc2)cc1)N1CC(N[C@H]2CCN(C(=O)c3ccccc3)C2)C1 measured_value=7.92
smiles_text=O=C(c1ccccc1)N1CC[C@H](NC2CN(C(=O)c3sc4ccccc4c3C3CC3)C2)C1 measured_value=6.67
smiles_text=O=C(c1ccc(-c2ccccc2)cc1)N1CC(N[C@H]2CCN(C(=O)c3nccs3)C2)C1 measured_value=6.94
smiles_text=O=C(c1ccc(-c2ccccc2)cc1)N1CC(N[C@H]2CCN(C(=O)c3cc4ccccc4s3)C2)C1 measured_value=5.05

I: CCN(C1CN(C(=O)c2ccc(-c3cccc(C(F)(F)F)c3)cc2)C1)[C@H]1CCN(C(=O)c2ccccc2)C1
II: O=C(c1ccccc1)N1CC[C@H](NC2CN(C(=O)c3cc4cc(OC(F)(F)F)ccc4s3)C2)C1
Q) Parameter check: reported pIC50 is higher for which label, I or II ? When you have decided, please share the label of that item.
A) I
(I: 8.00, II: 7.77)
